# System: Plasmodium falciparum
# ASSAY REMARKS: GSK_TCMDC: Inhibition of Plasmodium falciparum Dd2 in whole red blood cells, using parasite LDH activity as an index of growth. Test compounds present at 2uM
# Format: functional
PROPERTY: Inhibition (%)
Form entry: value (%) — number only.

The recorded Inhibition for entry COc1cc2nc(SCCCC#N)n(C3CCCCCC3)c(=N)c2cc1OC equals 9

====

# Test system: Plasmodium falciparum
# ASSAY REMARKS: GSK_TCMDC: Inhibition of Plasmodium falciparum Dd2 in whole red blood cells, using parasite LDH activity as an index of growth. Test compounds present at 2uM
# Format: functional
PROPERTY: Inhibition (%)
Provide the reading as a plain figure in %.

Please review the entries below; each comes with its answer.
| MOLECULE | TESTED SYSTEM | VALUE MEASURED |
| --- | --- | --- |
| N#Cc1cccc(NC(=O)Nc2cccc(-c3ccc(-c4nc5cc(C(F)(F)F)ccc5[nH]4)cc3)c2)c1 | Plasmodium falciparum | 99 |
| CCN(c1cc(C)nc(Nc2ccc(Cl)cc2)n1)[C@H]1CCN(Cc2ccccc2)C1 | Plasmodium falciparum | 31 |
| CC(C)NCc1cccc(-c2ccc(NC(=O)c3cccc(C#N)c3)cc2)c1.O=C(O)C(F)(F)F | Plasmodium falciparum | 95 |

Note to self: Inhibition recorded for Cc1cccc(C)c1C1CCN(CCCCNC(=O)c2cc3ccccc3[nH]2)CC1 was 18

Quick note, Inhibition for COc1ccccc1C1CCN(C2CCC(NC(=O)/C=C/c3ccc(C(F)(F)F)cc3)CC2)CC1 (centres undefined) landed at 7

get_value(item= CN1CCC(NCc2cccc(-c3cnc(NCc4ccccc4)nc3)c2)CC1.O=C(O)C(F)(F)F , readout=Inhibition) returns 67

According to the records, this molecule COc1ccc2oc(=O)c(C#N)c(O)c2c1 displays Inhibition of 0

The molecule listed as COc1cc(NC(=O)CCCCCCCN2CCN(C)CC2)c2ncccc2c1 shows Inhibition equal to 83

Entry under test: C=C[C@]1(C)C[C@@H](OC(=O)CSC2CN3CCC2C3)[C@@]2(C)C3C(=O)CC[C@@]3(CC[C@H]2C)[C@@H](C)[C@@H]1O.Cl (some centres undefined) . Its Inhibition was 75

====

Reported Inhibition values for the following compounds.
# Tested on: Plasmodium falciparum
# ASSAY REMARKS: GSK_TCMDC: Inhibition of Plasmodium falciparum 3D7 in whole red blood cells, using parasite LDH activity as an index of growth. Test compounds present at 2uM
# Type: functional
Reply with just the number (in %).

| GIVEN SMILES | Inhibition / % |
| --- | --- |
| COc1cc([N+](=O)[O-])ccc1NC(=O)Nc1ccc(OC(F)(F)F)cc1 | 84 |

GET /value?item= O=C1SC(S)=NC1=CNCCCCCCO &field=Inhibition returns 91

The reported Inhibition of the compound Cl.c1ccc(CN2CCN(CCCCNc3c4ccccc4nc4ccccc34)CC2)cc1 was 100

Item: CC(=O)Nc1ccccc1OCc1cc2cc(C(=O)N3CCC(N4C(=O)OCc5ccccc54)CC3)ccc2o1 | Inhibition: 99

So, CO/C(=C\C=C\c1cc2cc(Cl)c(Cl)cc2[nH]1)C(=O)NCCCN1CCN(c2ccc(OC)cc2)CC1 ? Its Inhibition was 99

====

# Test system: HepG2
# ASSAY REMARKS: GSK_TCMDC: Percent inhibition of human HepG2 cell line. Test compounds present at 10uM.
# Format: functional
// classify: if (Inhibition < 60%) t else f

Consider the worked cases shown below.
| MOLECULE | QUALITATIVE LABEL |
| --- | --- |
| O=[N+]([O-])c1ccc(Nc2nc(N/N=C/c3ccc(-c4ccc([N+](=O)[O-])cc4)o3)nc(Nc3ccccc3)n2)cc1 | t |
| O=C(C=Cc1ccc(Cl)c(Cl)c1)NCCCCCN1CCCC(CCCNC(=O)c2sc3ccccc3c2Cl)C1 (centres undefined) | f |
| O=C(NCc1ccccc1)NC(CCCN1CCC(Oc2cccc(Cl)c2)CC1)c1ccc(Cl)c(Cl)c1 (centres undefined) | t |

With those in mind, consider the next molecule.
Determine whether this molecule shows Inhibition lower than 60% (ties excluded): Br.CC(CON1C(N)=NC(N)=NC1(C)C)c1ccc(Cl)cc1Cl (centres undefined) f
